Tested system: mGlyT-1b (Mus musculus, UniProt P28571)
Construct: host or cells: Flp-in-CHO
Sequence (P28571 1-651 isoform P28571-2): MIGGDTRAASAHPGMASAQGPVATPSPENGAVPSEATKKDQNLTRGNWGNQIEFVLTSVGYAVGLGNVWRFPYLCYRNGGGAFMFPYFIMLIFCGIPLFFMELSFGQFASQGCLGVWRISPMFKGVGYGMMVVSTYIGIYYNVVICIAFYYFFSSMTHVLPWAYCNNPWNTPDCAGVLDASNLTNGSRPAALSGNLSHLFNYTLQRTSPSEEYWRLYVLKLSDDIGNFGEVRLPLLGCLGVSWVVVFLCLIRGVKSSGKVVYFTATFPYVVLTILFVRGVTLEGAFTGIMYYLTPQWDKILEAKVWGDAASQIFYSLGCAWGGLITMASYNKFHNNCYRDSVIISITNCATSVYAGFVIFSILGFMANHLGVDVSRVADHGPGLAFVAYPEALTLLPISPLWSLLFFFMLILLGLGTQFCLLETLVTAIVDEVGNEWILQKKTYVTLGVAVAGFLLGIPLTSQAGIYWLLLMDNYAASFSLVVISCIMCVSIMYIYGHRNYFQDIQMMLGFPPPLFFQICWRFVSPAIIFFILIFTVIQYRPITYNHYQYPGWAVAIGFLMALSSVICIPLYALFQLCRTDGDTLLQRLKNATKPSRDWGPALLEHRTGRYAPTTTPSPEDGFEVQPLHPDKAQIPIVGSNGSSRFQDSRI
Experimental details: Glycine uptake inhibition assay (mGlyT-1b)
Assay type: cell-based
Test conditions: inhibition of [3H]-glycine uptake in Flp-in-CHO cells transfected with mGlyT-1b cDNA; 20 min preincubation at 22° C.; read-out: IC50 (μM) at GlyT-1
Experimental: DMEM complete medium: Nutrient mixture F-12 (Gibco Life-technologies), fetal bovine serum (FBS) 5%, (Gibco life technologies), Penicillin/Streptomycin1% (Gibco life technologies), Hygromycin 0.6 mg/ml (Gibco life technologies), Glutamine 1 mM Gibco life technologies) Uptake buffer (UB): 150 mM NaCl, 10 mM Hepes-Tris, pH 7.4, 1 mM CaCl2, 2.5 mM KCl, 2.5 mM MgSO4, 10 mM (+) D-glucose. Flp-in™-CHO (Invitrogen Cat n^o R758-07) cells stably transfected with mGlyT1b cDNA. […]
Observation type: IC50 (µM)

In the examples that follow, each entry is paired with its recorded IC50.
{"columns": ["Molecule", "Tested system", "Result unit", "Number"],
 "data": [
  ["Cc1cc2c(cc1C1CCOCC1)CN(C(=O)c1cc(S(C)(=O)=O)ccc1O[C@@H](C)C(F)(F)F)C2 [Example 300]", "mGlyT-1b (Mus musculus, UniProt P28571)", "µM", 0.017],
  ["CS(=O)(=O)c1ccc(-c2ccccc2)c(C(=O)N2CCc3c(C#N)cccc32)c1 [Example 204]", "mGlyT-1b (Mus musculus, UniProt P28571)", "µM", 0.019],
  ["CS(=O)(=O)c1ccc(OCC2CC2)c(C(=O)N2Cc3ccc(C4CCOCC4)cc3C2)c1 [Example 271]", "mGlyT-1b (Mus musculus, UniProt P28571)", "µM", 0.029]
]}

A = COc1cc2c(cc1Cl)CN(C(=O)c1cc(S(C)(=O)=O)ccc1O[C@@H](C)C(F)(F)F)C2 [Example 27]
B = COc1cc2c(cc1Cl)CN(C(=O)c1cc(S(C)(=O)=O)ccc1O[C@H](C)C(F)(F)F)C2 [Example 218]
C = CC(C)Oc1ccc(S(C)(=O)=O)cc1C(=O)N1Cc2ccc(OC3CCOCC3)cc2C1 [Example 373]
q: Arrange by IC50, high to low. Labels, ranked as asked.
a: B, A, C

P = CC(Oc1ccc(S(C)(=O)=O)cc1C(=O)N1Cc2cc(Cl)c(Cl)cc2C1)C(F)(F)F (racemic) [Example 9]
Q = C[C@H](Oc1ccc(S(C)(=O)=O)cc1C(=O)N1Cc2ccc(-c3ccsc3)cc2C1)C(F)(F)F [Example 330]
R = CC(C)Sc1ccc(S(C)(=O)=O)cc1C(=O)N1Cc2cc(Cl)c(Cl)cc2C1 [Example 16]
S = C[C@H](Oc1ccc(S(C)(=O)=O)cc1C(=O)N1Cc2ccc(OC3CCOCC3)cc2C1)C(F)(F)F [Example 367]
T = C[C@@H](Oc1ccc(S(C)(=O)=O)cc1C(=O)N1Cc2cc(C(F)(F)F)cnc2C1)C(F)(F)F [Example 139]
q: Rank ascending by IC50. // list labels; follow requested order
a: S, T, Q, P, R

P = C[C@H](Oc1ccc(S(C)(=O)=O)cc1C(=O)N1Cc2ccc(-c3cccnc3)cc2C1)C(F)(F)F [Example 317]
Q = C[C@H](Oc1ccc(S(C)(=O)=O)cc1C(=O)N1Cc2cc(Cl)c(C3CCOCC3)cc2C1)C(F)(F)F [Example 305]
R = C[C@H](Oc1ccc(S(C)(=O)=O)cc1C(=O)N1Cc2ccc(C3(F)COC3)cc2C1)C(F)(F)F [Example 368]
q: Please put the entries in order of rising IC50. # list labels per requested ordering
a: R, P, Q
(R: 0.005 µM, P: 0.024 µM, Q: 0.037 µM)

A = C[C@H](Oc1ccc(S(C)(=O)=O)cc1C(=O)N1Cc2ccc(C3CCCOC3)cc2C1)C(F)(F)F (mixture of isomers) [Example 312]
B = C[C@H](Oc1ccc(S(C)(=O)=O)cc1C(=O)N1Cc2ccc(-c3cccc(F)c3)cc2C1)C(F)(F)F [Example 334]
q: Problem: Given the entries A and B , determine which has the lower reported IC50. Response format: the label of the selected entry.
a: B
(B: 0.02 µM, A: 0.032 µM)

a = CS(=O)(=O)c1ccc(-c2ccccc2)c(C(=O)N2Cc3cc(Cl)c(N4CCOCC4)cc3C2)c1 [Example 252]
b = C[C@H](Oc1ccc(S(C)(=O)=O)cc1C(=O)N1Cc2ccc(CC(F)(F)F)cc2C1)C(F)(F)F [Example 290]
q: For the two items a and b , which reports the higher IC50 value? Identify your pick by its label.
a: a

P = CC(C)Oc1ccc(S(C)(=O)=O)cc1C(=O)N1Cc2ccc(C3CCOCC3)cc2C1 [Example 268]
Q = C[C@H](Oc1ccc(S(C)(=O)=O)cc1C(=O)N1Cc2cc(F)c(C(F)(F)F)cc2C1)C(F)(F)F [Example 224]
R = C[C@H](Oc1ccc(S(C)(=O)=O)cc1C(=O)N1Cc2ccc(N3CCCC(F)(F)C3)cc2C1)C(F)(F)F [Example 287]
q: I would appreciate it if you could sort these 3 molecules by IC50, starting from the smallest number. I'd appreciate it if you listed the labels in the requested order.
a: Q, P, R
(Q: 0.019 µM, P: 0.028 µM, R: 0.043 µM)

A = Cc1csc(-c2ccc3c(c2)CN(C(=O)c2cc(S(C)(=O)=O)ccc2O[C@@H](C)C(F)(F)F)C3)n1 [Example 168]
B = CS(=O)(=O)c1ccc(OCC2CCC2)c(C(=O)N2Cc3cc(Cl)c(N4CCOCC4)cc3C2)c1 [Example 249]
q: I would appreciate it if you could say which entry, A or B , has the lower IC50 value. // output: label of the selected item
a: B
(B: 0.022 µM, A: 0.033 µM)

----------
Tested system: mGlyT-1b (Mus musculus, UniProt P28571)
Construct: host or cells: Flp-in-CHO
Experimental details: Glycine uptake inhibition assay (mGlyT-1b)
Assay type: cell-based
Test conditions: inhibition of [3H]-glycine uptake in Flp-in-CHO cells transfected with mGlyT-1b cDNA; 20 min preincubation at 22° C.; read-out: IC50 (μM) at GlyT-1
Observation type: IC50 (µM)

Worked cases, answers included:
{"columns": ["Compound", "IC50, µM"],
 "data": [
  ["COc1cccc(-c2ccc3c(c2)CN(C(=O)c2cc(S(C)(=O)=O)ccc2O[C@@H](C)C(F)(F)F)C3)c1 [Example 340]", 0.025],
  ["Cc1cc2c(cc1Cl)CN(C(=O)c1cc(S(C)(=O)=O)ccc1OCC(C)C)C2 [Example 56]", 0.016]
]}

a = C[C@H](Oc1ccc(S(C)(=O)=O)cc1C(=O)N1Cc2ccc(-c3cccs3)cc2C1)C(F)(F)F [Example 344]
b = C[C@@H](Oc1ccc(S(C)(=O)=O)cc1C(=O)N1Cc2ccc(C(F)(F)F)cc2C1)C(F)(F)F [Example 17]
q: Lower IC50: a or b ? Give the label of your selection.
a: b

----------
Tested system: mGlyT-1b (Mus musculus, UniProt P28571)
Construct: host or cells: Flp-in-CHO
Experimental details: Glycine uptake inhibition assay (mGlyT-1b)
Format: cell-based
Test conditions: inhibition of [3H]-glycine uptake in Flp-in-CHO cells transfected with mGlyT-1b cDNA; 20 min preincubation at 22° C.; read-out: IC50 (μM) at GlyT-1
Description: DMEM complete medium: Nutrient mixture F-12 (Gibco Life-technologies), fetal bovine serum (FBS) 5%, (Gibco life technologies), Penicillin/Streptomycin1% (Gibco life technologies), Hygromycin 0.6 mg/ml (Gibco life technologies), Glutamine 1 mM Gibco life technologies) Uptake buffer (UB): 150 mM NaCl, 10 mM Hepes-Tris, pH 7.4, 1 mM CaCl2, 2.5 mM KCl, 2.5 mM MgSO4, 10 mM (+) D-glucose. Flp-in™-CHO (Invitrogen Cat n^o R758-07) cells stably transfected with mGlyT1b cDNA. […]
Observation type: IC50 (µM)

{"columns": ["Compound", "Result unit", "Number"],
 "data": [
  ["C[C@H](Oc1ccc(S(C)(=O)=O)cc1C(=O)N1Cc2ccc(OCC(F)(F)F)cc2C1)C(F)(F)F [Example 357]", "µM", 0.03],
  ["C[C@H](Oc1ccc(S(C)(=O)=O)cc1C(=O)N1Cc2ccc(-c3nccs3)cc2C1)C(F)(F)F [Example 172]", "µM", 0.03],
  ["CC(C)COc1ccc(S(C)(=O)=O)cc1C(=O)N1Cc2cc(C(F)(F)F)cnc2C1 [Example 125]", "µM", 0.03]
]}

----------
Tested system: mGlyT-1b (Mus musculus, UniProt P28571)
Construct: host or cells: Flp-in-CHO
Experimental details: Glycine uptake inhibition assay (mGlyT-1b)
Assay type: cell-based
Test conditions: inhibition of [3H]-glycine uptake in Flp-in-CHO cells transfected with mGlyT-1b cDNA; 20 min preincubation at 22° C.; read-out: IC50 (μM) at GlyT-1
Observation type: IC50 (µM)

{"columns": ["Structure notation", "Result unit", "Number"],
 "data": [
  ["CNS(=O)(=O)c1ccc(OC(C)C)c(C(=O)N2Cc3ccc(C(F)(F)F)cc3C2)c1", "µM", 0.034],
  ["COC(=O)c1cccc2c1CCN2C(=O)c1cc(S(C)(=O)=O)ccc1OC(C)C", "µM", 0.041],
  ["C[C@H](Oc1ccc(S(C)(=O)=O)cc1C(=O)N1Cc2ccc(-c3ccccc3Cl)cc2C1)C(F)(F)F", "µM", 0.045],
  ["CS(=O)(=O)c1ccc(-c2ccc(F)cc2)c(C(=O)N2Cc3cc(Cl)c(N4CCOCC4)cc3C2)c1", "µM", 0.032],
  ["C[C@H](Oc1ccc(S(C)(=O)=O)cc1C(=O)N1Cc2cnc(-c3ccc(F)cc3)cc2C1)C(F)(F)F", "µM", 0.034],
  ["C[C@H](Oc1ccc(S(C)(=O)=O)cc1C(=O)N1Cc2ccc(N3[C@@H]4CC[C@H]3COC4)cc2C1)C(F)(F)F", "µM", 0.04]
]}

Data credit: patent US8188139B2
